Tested on: UO-31 renal
protocol.description: NCI tumour cell line growth inhibition, 48 h
measure: TGI

query: Given the entry CC(NC(=O)OC(C)(C)C)C(=O)NC1CCCC1 (stereo unspecified) , report its measured TGI.
result: > 100 µM

query: Which TGI reading was recorded for the compound Cc1ccccc1Cn1nc2ccccc2cc1=O ?
result: > 100 µM

query: Item under review: COc1cc(C(=O)O[C@H]2CCC3CCC2N3C)cc(OC)c1OC (stereo partly specified) . Reported TGI?
result: > 100 µM

query: Which TGI value belongs to O=C1C2=C(C(c3ccccc3)=C1c1ccccc1)c1ccccc1C1(c3ccccc3)C2=C(O)C(c2ccccc2)=C1c1ccccc1 (stereo unspecified) ?
result: > 100 µM

query: Give the measured TGI of COC(=O)C(=O)C(CC(=O)Nc1c(C)cccc1C)C(=O)OC (stereo unspecified) .
result: > 100 µM

query: # get_value(readout='TGI', item= O=C(O)C(CO)N=Cc1nc(-c2ccccc2)oc1O (stereo unspecified) )
result: > 100 µM

query: TGI lookup needed for O=C1c2ccccc2CC12CCC1(CC2)OCCO1 , thanks.
result: > 100 µM

query: Can you look up the measured TGI of COc1ccc(/C=C/C(=O)Nc2cc(/C=C\c3cc(OC)c(OC)c(OC)c3)cc(OC)c2OC)cc1OC for me?
result: > 100 µM

query: What TGI value was documented for this compound, C[C@]12CCC(=O)C(O)=C1CCC2=O ?
result: > 100 µM

query: Return reported TGI; argument: COC(=O)[C@@H]1c2[nH]c3ccccc3c2C[C@@H]2c3ccccc3NC(=O)[C@@H]21
result: > 100 µM

query: Could you share which TGI value was measured for COc1cc(-c2cc(-c3nc4ccc(F)cc4[nH]3)[nH]n2)cc(OC)c1OC ?
result: 6.97 µM

query: Given the compound CCCCCCC1=NOC(C(c2cc[nH]c2)N(C)[C@H](C(=O)OC)C(C)C)C1 (stereo partly specified) , what is its reported TGI?
result: > 100 µM

query: Query (compound): CC(=O)OC1COC(n2nc(N)nc2C)C(OC(C)=O)C1OC(C)=O (stereo unspecified) ; field requested: TGI
result: > 100 µM

query: I'd like to know its TGI. The compound in question is CCCCCCCCCCCCCCCC(=O)Nc1ccn(C2CC(OP(=O)(O)OCC3OC(n4cc(F)c(=O)[nH]c4=O)CC3OC(C)=O)C(CO)O2)c(=O)n1 (stereo unspecified)
result: 2.75 µM

query: Look at this compound and give its reported TGI. c1ccc(P2c3ccccc3Nc3ccccc32)cc1
result: > 100 µM

* * *

System: U251 CNS
protocol.description: NCI tumour cell line growth inhibition, 48 h
Reported TGI values follow for various molecules
Respond numerically; units are µM and should not be typed.

INSERT INTO measurements (molecule, subject_of_test, measure, observed_value) VALUES
  ('COc1cc(C2c3cc4c(cc3[C@@H](Nc3ccc(F)cc3)C3CO[C@@H](O)[C@H]23)OCO4)cc(OC)c1O (stereo not given in full)', 'U251 CNS', 'TGI', 8.47);

query: Look at this molecule and give its reported TGI. O=C1C=CC2(NN=C(c3ccccc3)N2c2ccccc2)c2cccc(O)c21 (stereo not given)
result: 20.2

query: Entry under review: COc1ccccc1CNCCCCCNCCCCCCCCCCNCCCCCNCc1ccccc1OC . Reported TGI?
result: 32.9

query: Entry c1ccc(N=C(N2CCCCC2)N(CCN2CCCCC2)c2ccccc2)cc1 : reported TGI = ?
result: 5.39
